- assay-notes: Cytotoxicity to macrophages determined in parallel to the intramacrophage assay
- Type: cell-based
- experimental-parameters: CDI, surviving, uninfected mouse peritoneal macrophages
- Procedure: Macrophages were isolated from the mouse (CDI) peritoneal cavity ([Zhang et al., 2008]) using 2% starch solution as eliciting agent injected 2 day prior to cell harvest. […] The IC50 values were calculated based on the infection rate and the numbers of intracellular amastigotes. The cytotoxicity to macrophages was determined in parallel, and IC50 values were calculated based on the numbers of surviving, uninfected macrophages. […]
// IC50 at 96 h lookup, one value per entry
measurement-type: IC50 at 96 h

compound | endpoint-value
COc1ccc(-c2oc3cc(O)cc(O)c3c(=O)c2OC)cc1O [Compound 5, Quercetin-3,4′-dimethylether] | 42.7 µM
COc1ccc(C[C@@H]2c3cc(OC)c(OC)cc3CCN2C)cc1O [Compound 8, Laudanine] | > 200 µM
COc1cc(C(=O)O)ccc1O [Compound 7, 3-Methoxy-4-hydroxybenzoic acid] | > 500 µM
COc1ccc(CC2c3cc(OC)c(OC)cc3CCN2C)cc1OC (stereo not shown) [Compound 9, Laudanosine] | > 245 µM
